Data provenance is patent US20250368649A1.

Molecular target: KRas G13D (Homo sapiens, UniProt P01116, G13D)
Sequence (P01116 1-169 isoform P01116-2 G13D): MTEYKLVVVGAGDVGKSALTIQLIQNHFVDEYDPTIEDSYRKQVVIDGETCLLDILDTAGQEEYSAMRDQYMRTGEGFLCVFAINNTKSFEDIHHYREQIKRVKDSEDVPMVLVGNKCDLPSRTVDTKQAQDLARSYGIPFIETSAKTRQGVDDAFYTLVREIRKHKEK
Assay type: binding
Details: single point, 10 nM compound, read-out: Binding to KRas (% inhibition at 10 nM) G13D
# maps each entry to its inhibition at 0.01 µM

{"compound": "CCc1c(F)ccc2cc(O)cc(N3CCc4c(nc(OC[C@@]56CCCN5C[C@H](F)C6)nc4N4CCCn5nc(C(=O)NC(C)C)c(Cl)c5C4)C3)c12", "inhibition at 0.01 µM (%)": 96}
{"compound": "CCc1c(F)ccc2cc(O)cc(N3CCc4c(nc(OC[C@@]56CCCN5C[C@H](F)C6)nc4N4CCCCn5nc(C(=O)N(C)C)cc5C4)C3)c12", "inhibition at 0.01 µM (%)": 96}
{"compound": "CCc1c(F)ccc2cc(O)cc(N3CCc4c(nc(OC[C@@]56CCCN5C[C@H](F)C6)nc4N4CCCn5nc(C(=O)N6CC7CCC6CN7)cc5C4)C3)c12 (some centres unmarked)", "inhibition at 0.01 µM (%)": 97}
{"compound": "CCc1c(F)ccc2cc(O)cc(N3CCc4c(nc(OC[C@@]56CCCN5C[C@H](F)C6)nc4N4CCCn5nc(C(=O)N6C[C@@H]7C[C@H](C6)[C@H](O)C7)cc5C4)C3)c12", "inhibition at 0.01 µM (%)": 99}
{"compound": "CCNC(=O)c1nn2c(c1Cl)CN(c1nc(OC[C@@]34CCCN3C[C@H](F)C4)nc3c1CCN(c1cc(O)cc4ccc(F)c(CC)c14)C3)CCC2", "inhibition at 0.01 µM (%)": 98}

---

Test system: MKN1 cells
Experiment: Inhibition of KRas-mediated phosphorylation of ERK (Cisbio HTRF pERK), MKN1 cells
Assay type: cell-based
Settings: Homo sapiens, MKN-1, 3 hour compound incubation, Cisbio pERK HTRF
Classes (IC50): 1: < 20 nM; 2: ≥ 20 nM and < 400 nM; 3: ≥ 400 nM

{"compound": "C=C1CN2CC(=C)CC2(COc2nc3c(c(N4C[C@@H]5C[C@H](C4)[C@H](O)C5)n2)CCN(c2cc(O)cc4ccc(F)c(CC)c24)C3)C1", "classification": 1}
{"compound": "CCc1c(F)ccc2cc(O)cc(N3CCc4c(nc(OC[C@@]56CCCN5C[C@H](F)C6)nc4N4CCCn5nc(NC)c(C)c5C4)C3)c12", "classification": 2}
{"compound": "CCc1c(F)ccc2cc(O)cc(N3CCc4c(nc(OC[C@@]56CCCN5C[C@H](F)C6)nc4N4CCCC5(CSC5)C4)C3)c12", "classification": 3}
{"compound": "CCc1c(F)ccc2cc(O)cc(N3CCc4c(nc(OC[C@@]56CCCN5C[C@H](F)C6)nc4N4CCCn5nc(NC)c(F)c5C4)C3)c12", "classification": 2}
{"compound": "CCc1c(F)ccc2cc(O)cc(N3CCc4c(nc(OC[C@@]56CCCN5C[C@H](F)C6)nc4N4CCCCn5nc(N)cc5C4)C3)c12", "classification": 2}
{"compound": "Cc1c(F)ccc2cc(O)cc(N3CCc4c(nc(OC[C@@]56CCCN5C[C@H](F)C6)nc4N4CCCC5(CNS(=O)(=O)N5)C4)C3)c12 (stereo partly drawn)", "classification": 1}
{"compound": "CCc1c(F)ccc2cc(O)cc(N3CCc4c(nc(OC[C@@]56CCCN5C[C@H](F)C6)nc4N4CCCn5nc(C(=O)N6CCC7CC6CN7)cc5C4)C3)c12 (stereo partly drawn)", "classification": 2}
{"compound": "CCc1c(F)ccc2cc(O)cc(N3CCc4c(nc(OC[C@@]56CCCN5C[C@H](F)C6)nc4N4CCCn5nc(C(=O)NC)c(C)c5C4)C3)c12", "classification": 1}
{"compound": "CCc1c(F)ccc2cc(O)cc(N3CCc4c(nc(OC[C@@]56CCCN5C[C@H](F)C6)nc4N4CCCn5nc(CNS(=O)(=O)N(C)C)cc5C4)C3)c12", "classification": 3}
{"compound": "CCc1c(F)ccc2cc(O)cc(N3CCc4c(nc(OC[C@@]56CCCN5C[C@H](F)C6)nc4N4CCCn5nc(C(=O)NC6CCC6)cc5C4)C3)c12", "classification": 2}
{"compound": "CCc1c(F)ccc2cc(O)cc(N3CCc4c(nc(OC[C@@]56CCCN5C[C@H](F)C6)nc4N4CCCn5nc(CNC(C)=O)cc5C4)C3)c12", "classification": 3}
{"compound": "CN(C)C(=O)c1cc2n(n1)CCCN(c1nc(OC[C@@]34CCCN3C[C@H](F)C4)nc3c1CCN(c1cccc4cccc(Cl)c14)C3)C2", "classification": 3}
